Origin of values: ChEMBL document CHEMBL4715724

- System: MDA-MB-468
- Assay summary: cells
- Assay type: functional
- Measurement conditions: Homo sapiens, time 48 hrs
- Description: Growth inhibition of human MDA-MB-468 cells incubated for 48 hrs by sulforhodamine B assay
Consider the following compounds and their measured GI50 readings.

Smiles: CN1CCN(CCCOc2cccc3nc(Nc4ccc(Cl)c(C(F)(F)F)c4)ccc23)CC1
GI50: 1600 nM

Smiles: CN1CCN(CCCOc2cccc3nc(Nc4cccc(Cl)c4)ccc23)CC1
GI50: 1610 nM

Smiles: Fc1cc(Nc2ccc3c(OCCCN4CCOCC4)cccc3n2)ccc1Cl
GI50: 2080 nM

Smiles: CC(C)c1ccc(Nc2ccc3c(OCCCN4CCN(C)CC4)cccc3n2)cc1
GI50: 12300 nM

Smiles: Clc1cc(Cl)cc(Nc2ccc3c(OCCCN4CCOCC4)cccc3n2)c1
GI50: 2080 nM

Smiles: CN1CCN(CCCOc2cccc3nc(Nc4ccc(F)c(F)c4)ccc23)CC1
GI50: 2110 nM

Smiles: FC(F)(F)c1cc(Nc2ccc3c(OCCCN4CCOCC4)cccc3n2)ccc1Cl
GI50: 2170 nM

Smiles: CN1CCN(CCCOc2cccc3nc(Nc4ccc(Cl)c(F)c4)ccc23)CC1
GI50: 1720 nM

Smiles: CN1CCN(CCCOc2cccc3nc(Nc4cc(Cl)cc(Cl)c4)ccc23)CC1
GI50: 1690 nM
